- target or system: UV-inactivated SARS-CoV preparation (Frankfurt 1 strain) (SARS-CoV strain Frankfurt 1)
- assay details: phage ELISA, plate 2 (no phage 0.211)
Tick true (1) if OD492nm is 0.7 OD492nm or greater. Tick false (0) if OD492nm is less than 0.7 OD492nm.

Solved entries (count: 5):
>>> qualitative_label("SC03-024 (scFv) scFv: AMAQVQLVESGSELKIPGASVKVSCKATGYTFTRYSLNWVRQAPGQGLEWVGWINTQTGNSNYGQAFSGRFVFSLDTSVSTAYLQISSLQAEDTATYYCARKSAGSNAFDIWGQGTMVTVSSGTGGSGGTGSGTGGSTQSVVTQPPSVSAAPGQKATISCSGSSSNIGNNYVSWYQQLPGTAPKLLIYDNNKRPSGIPNRFSGSKSGTSATLGITGLQTGDEADYYCGTWDSSLSAYVFGTGTKVTVLGAA")
"false (0)"
>>> qualitative_label("SC03-023 (scFv) scFv: AMAQVQLQQWGAGLLKPSETLSLTCAVYGGSFSGFYWSWIRQPPGKGLEWIGEINHSGSTNYNPSLKSRVTISVDTSKNQFSLKLSSVTAADTAVYYCARRVEVVEYQLLRPRYKSWFDPWGQGTLVTVSSGTGGSGGTGSGTGGSTQSALTQPRSVSGSPGQSVTISCTGSSSTVGGYNYVSWYQQHPGKAPKLMIYDVSKRPSGVSNRFSGSKSGNTASLTISGLQAEDEADYYCSSYTSSSTYVFGTGTKVTVLGAA")
"true (1)"
>>> qualitative_label("SC03-025 (scFv) scFv: AMAEVQLVESGGGLVQPGGSLRLSCAASGFTFSSYAMHWVRQAPGKGLEYVSGISSNGGSTYYANSVKGRFTISRDNSKNTLYLQMGSLRAEDMAVYYCARTTNRAFDIWGQGTMVTVSSGTGGSGGTGSGTGGSTDIQLTQSPDSLAVSLGERATINCKSSQSVLYSSNNKNYLAWYQQKPGQPPKLLIYWASIRESGVPDRFSGSGSGTDFTLTISSLQAEDVAVYYCQQYYNIPYAFGQGTKLEIKRAA")
"true (1)"
>>> qualitative_label("SC03-020 (scFv) scFv: AMAEVQLVQSGSEVKKPGESLKISCKGSGYGFITYWIGWVRQMPGKGLEWMGIIYPGDSETRYSPSFQGQVTISADKSINTAYLQWSSLKASDTAIYYCAGGSGISTPMDVWGQGTTVTVSSGTGGSGGTGSGTGGSTDIQMTQSPDSLAVSLGERATINCKSSQKILHSSNNKNYLAWYQQKPGQPPKLLIYWASTRESGVPDRFSGSGSGTDFTLTISSLQAEDVAVYYCQQYYSTPPVFGGGTKVEIKRAA")
"false (0)"
>>> qualitative_label("SC03-026 (scFv) scFv: AMAQVQLVQSGGGLVQPGGSLRLSCAASGFTFSSYAMHWVRQAPGKGLEYVSGISSNGGSTYYANSVKGRFTISRDNSKNTLYLQMGSLRAEDMAVYYCARTTNRAFDIWGQGTMVTVSSGTGGSGGTGSGTGGSTDIQMTQSPDSLAVSLGERATINCKSSQSILYSSNSKNYLGWYQQKPGQPPKLLIYWASTRESGVPDRFSGSGSGTDFTLTISSLQAEDVAVYYCQQYYSTPYSFGQGTKVEIKRAA")
"true (1)"

Could you now look at the following binder, please?
## Task Can SC03-021 (scFv) scFv: AMAQVQLVQSGTEVKKPGESLKISCKGSGYGFITYWIGWVRQMPGKGLEWMGIIYPGDSETRYSPSFQGQVTISADKSINTAYLQWSSLKASDTAIYYCAGGSGISTPMDVWGQGTTVTVSSGTGGSGGTGSGTGGSTDVVMTQSPDSLAVSLGERATINCKSSQSVLHSSNNKNYLAWYQQKPGQPPKLLIYWASTRQSGVPDRFSGSGSGTDFTLTISSLQAEDVAVYYCQQYYSTPPTFGQGTKVEIKRAA be said to have OD492nm at or above 0.7 OD492nm?
## Result false (0)

Data credit: patent EP1644414B1
